- systemName: human 11-β-HSD-2 (Homo sapiens)
- Sequence (P80365 whole entry): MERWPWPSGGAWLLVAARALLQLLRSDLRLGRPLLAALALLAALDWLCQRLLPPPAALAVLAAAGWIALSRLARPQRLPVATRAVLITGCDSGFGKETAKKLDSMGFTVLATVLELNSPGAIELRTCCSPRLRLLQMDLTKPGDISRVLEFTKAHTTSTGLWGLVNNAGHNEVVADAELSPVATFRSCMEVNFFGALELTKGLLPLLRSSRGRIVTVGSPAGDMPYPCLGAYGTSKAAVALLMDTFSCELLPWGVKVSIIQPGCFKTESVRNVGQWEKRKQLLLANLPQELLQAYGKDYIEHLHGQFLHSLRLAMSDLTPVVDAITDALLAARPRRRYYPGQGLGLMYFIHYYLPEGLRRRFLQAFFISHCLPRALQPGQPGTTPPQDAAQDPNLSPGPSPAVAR
IC50 less than 20 µM is true; IC50 greater than or equal to 20 µM is false.

compound | class
CC(C)(C(=O)N[C@@H]1[C@@H]2C[C@@H]3C[C@H]1C[C@@](C(N)=O)(C3)C2)c1ccc(-c2ccc(C(F)(F)F)cn2)cc1 [X] | false
CC(C)(C(=O)N[C@@H]1[C@@H]2C[C@@H]3C[C@H]1C[C@@](C(N)=O)(C3)C2)c1cccc(Br)c1 [GG] | true
Cc1ccccc1CN1CCC(C)(C(=O)N[C@@H]2[C@@H]3C[C@@H]4C[C@H]2C[C@@](C(N)=O)(C4)C3)C1=O (stereo partly shown) [CC] | true
NC(=O)[C@]12C[C@@H]3C[C@H](C1)[C@@H](NC(=O)C1(c4ccc(Cl)cc4)CC1)[C@@H](C3)C2 [H] | false
NC(=O)[C@]12C[C@@H]3C[C@H](C1)[C@@H](NC(=O)C1(c4ccccc4F)CCCC1)[C@@H](C3)C2 [O] | true
COc1ccc(C2(C(=O)N[C@@H]3[C@@H]4C[C@@H]5C[C@H]3C[C@@](C(N)=O)(C5)C4)CCCC2)cc1 [Y] | true
CC(C)(C(=O)N[C@@H]1[C@@H]2C[C@@H]3C[C@H]1C[C@@](C(N)=O)(C3)C2)c1ccsc1 [V] | true
NC(=O)[C@]12C[C@@H]3C[C@H](C1)[C@@H](NC(=O)C1(c4ccc(F)cc4)CCCC1)[C@@H](C3)C2 [N] | false
CC(C)(C(=O)N[C@@H]1[C@@H]2C[C@@H]3C[C@H]1C[C@@](C(N)=O)(C3)C2)c1ccc(Br)cc1 [Z] | false
CC(C)(C(=O)N[C@@H]1[C@@H]2C[C@@H]3C[C@H]1C[C@@](C(N)=O)(C3)C2)c1ccc(C(F)(F)F)cn1 [W] | false
Cc1noc(C)c1-c1ccc(C(C)(C)C(=O)N[C@@H]2[C@@H]3C[C@@H]4C[C@H]2C[C@@](C(N)=O)(C4)C3)cc1 [HH] | false
NC(=O)[C@]12C[C@@H]3C[C@H](C1)[C@@H](NC(=O)C1(c4ccc(Cl)cc4Cl)CC1)[C@@H](C3)C2 [Q] | true
CC(C)(C(=O)N[C@@H]1[C@@H]2C[C@@H]3C[C@H]1C[C@@](C(=O)NCc1ccc(C(=O)O)cc1)(C3)C2)c1cccs1 [JJ] | false
NC(=O)[C@]12C[C@@H]3C[C@H](C1)[C@@H](NC(=O)C1(c4ccccc4)CCCC1)[C@@H](C3)C2 [Compound K] | true
CC(C)(C(=O)N[C@@H]1[C@@H]2C[C@@H]3C[C@H]1C[C@@](C(N)=O)(C3)C2)c1cccs1 [U] | true

* * *

- assayProtocol: Metabolic stability screen, human liver microsomes
- Assay type: in vitro ADME
- measurementContext: 10 μM substrate, 30 min incubation, 37° C., 1 mM NADPH
Human Liver Microsomal Turnover (%) less than 10% is y; Human Liver Microsomal Turnover (%) greater than or equal to 10% is n.

compound | class
O=C(O)C12CC3CC(C1)C(NC(=O)C1(c4ccc(Cl)cc4)CCC1)C(C3)C2 (stereo not drawn) [Compound A] | y
CC(C)(C(=O)N[C@@H]1[C@@H]2C[C@@H]3C[C@H]1C[C@@](C(=O)O)(C3)C2)c1ccccc1 [C] | y
O=C(NC1C2CC3CC(C2)CC1C3)C1(c2ccccc2)CC1 (stereo not drawn) [F] | n
CC(C)(C(=O)NC1C2CC3CC(C2)CC1C3)c1ccccc1 (stereo not drawn) [E] | n
O=C(O)C12CC3CC(C1)C(NC(=O)C1(c4ccccc4)CC1)C(C3)C2 (stereo not drawn) [B] | y
